Assay: Cytotoxicity by CellTiter-Glo
Conditions: horse, E. Derm cells
What CC50 was measured for each of the following?

Exercise: Please give measured CC50 of the following entry: Cc1nc(N(C)C(=O)Cc2ccc(-c3ccccn3)cc2)sc1S(N)(=O)=O
Key: > 50 µM

Exercise: Assign CC50 to the following record: Nc1ncn([C@H]2C[C@H](O)[C@@H](CO)O2)c(=O)n1
Key: > 50 µM

Exercise: Tell us which CC50 value is on record for Nc1ccn(C[C@@H](CO)OCP(=O)(O)O)c(=O)n1
Key: > 50 µM

====

Experiment: Cytotoxicity by CellTiter-Glo
Conditions: horse
measured_attribute: CC50

Exercise: Retrieve CC50 measured for C[C@@]1(CO)[C@H](O)CC[C@@]2(C)[C@H]1CC[C@H]1C[C@@H]3C[C@@]12CC[C@]3(O)CO and print it.
Key: > 50 µM
